Tested on: ATS189
Experiment: qHTS profiling for inhibitors of Plasmodium falciparum proliferation (AID 504749); note: nearly all actives have a fitted effect of over 60% in size
Conditions: P. falciparum in erythrocytes, SYBR Green DNA, 72 h; series mostly up to 28.7 µM
Protocol: NIH National Institute of Allergy and Infectious Diseases [NIAID] NIH Chemical Genomics Center [NCGC] […] Because mature erythrocytes lack DNA, only Plasmodium-derived DNA is detected. NCGC Assay Protocol Summary: The SYBR Green viability assay was adapted from a method described previously (Plouffe et al., 2008). […] The following morning, fluorescence intensity at 485(14) nm excitation and 535(25) nm emission wavelengths was measured on an EnVision (Perkin Elmer) plate reader. […]
Results filed as inconclusive are left out. Calls of active or inactive are those of the source. Calls come from the whole dose curve; as a rule, active = well fitted inhibition curve with a large enough effect; inconclusive = small, poorly fitted or top-dose-only effect; inactive = flat fitted curve, though single readings scatter.

Compound: COC(=O)[C@@H]1[C@@H]2C[C@H]3c4[nH]c5ccccc5c4CCN3C[C@@H]2CC[C@@H]1O
System: ATS189
outcome: inactive
//
Compound: C/C=C1\C2C=C(C)CC1(N)c1ccc(=O)[nH]c1C2 (stereo not drawn)
System: ATS189
outcome: inactive
//
Compound: CC(=O)[C@H]1CC[C@H]2C3CC=C4C[C@@H](O)CC[C@]4(C)C3CC[C@]12C (stereo partly drawn)
System: ATS189
outcome: inactive

---

test system: CP260; test: qHTS profiling for inhibitors of Plasmodium falciparum proliferation (AID 504749); note: nearly all actives have a fitted effect of over 60% in size; conditions: P. falciparum in erythrocytes, SYBR Green DNA, 72 h; series mostly up to 28.7 µM
Records with an inconclusive call do not appear. The source made the active and inactive calls. Calls come from the whole dose curve; as a rule, active = well fitted inhibition curve with a large enough effect; inconclusive = small, poorly fitted or top-dose-only effect; inactive = flat fitted curve, though single readings scatter.
Classes used: active, inactive

Compound: O=C(CC1NCCC[C@H]1O)Cn1cnc2cc(Br)c(Cl)cc2c1=O (some centres undefined)
Classification: active
//
Compound: C/C=C1\C2C=C(C)CC1(N)c1ccc(=O)[nH]c1C2 (centres undefined)
Classification: inactive
//
Compound: CC(C)(O)c1ccccc1CC[C@H](SCC1(CC(=O)O)CC1)c1cccc(/C=C/c2ccc3ccc(Cl)cc3n2)c1
Classification: inactive
//
Compound: CC(=O)[C@H]1CC[C@H]2C3CC=C4C[C@@H](O)CC[C@]4(C)C3CC[C@]12C (some centres undefined)
Classification: inactive

---

test: qHTS for Activators of Parkin Expression: LOPAC Validation Assay (NLuc Reporter) (AID 720572); settings: Parkin promoter NanoLuc reporter cells, luminescence, percent of positive control, DMSO as zero; series mostly up to 46.1 µM
Records with an inconclusive call do not appear. The source made the active and inactive calls. The call rests on the fitted dose curve; in most records, active means well fitted activation curve with a large enough effect; inconclusive means small, poorly fitted or top-dose-only effect; inactive means flat fitted curve, though single readings scatter.

Compound: Cc1cccc(/C=C/c2ccccc2)n1
outcome: inactive
//
Compound: Oc1cc2c(c(Cl)c1O)CCNCC2c1ccccc1 (configuration not stated)
outcome: inactive
//
Compound: N#C/C(=C\c1ccc(O)c(O)c1)C(=O)Nc1ccccc1
outcome: inactive
//
Compound: CC[N+](CC)(CC)CC
outcome: inactive
//
Compound: Nc1c(S(=O)(=O)O)cc(Nc2ccc(Nc3nc(Cl)nc(Nc4ccc(S(=O)(=O)O)cc4)n3)c(S(=O)(=O)O)c2)c2c1C(=O)c1ccccc1C2=O
outcome: inactive
//
Compound: C[C@H](Cc1ccccc1)Nc1ncnc2c1ncn2[C@@H]1O[C@H](CO)[C@@H](O)[C@H]1O
outcome: inactive
//
Compound: CN1C2CCCC1CC(NC(=O)c1nn(C)c3ccccc13)C2 (configuration not stated)
outcome: inactive
